- ASSAYED_SYSTEM: Peroxisome proliferator-activated receptor gamma (Homo sapiens) (UniProt P37231)
- Sequence (whole entry): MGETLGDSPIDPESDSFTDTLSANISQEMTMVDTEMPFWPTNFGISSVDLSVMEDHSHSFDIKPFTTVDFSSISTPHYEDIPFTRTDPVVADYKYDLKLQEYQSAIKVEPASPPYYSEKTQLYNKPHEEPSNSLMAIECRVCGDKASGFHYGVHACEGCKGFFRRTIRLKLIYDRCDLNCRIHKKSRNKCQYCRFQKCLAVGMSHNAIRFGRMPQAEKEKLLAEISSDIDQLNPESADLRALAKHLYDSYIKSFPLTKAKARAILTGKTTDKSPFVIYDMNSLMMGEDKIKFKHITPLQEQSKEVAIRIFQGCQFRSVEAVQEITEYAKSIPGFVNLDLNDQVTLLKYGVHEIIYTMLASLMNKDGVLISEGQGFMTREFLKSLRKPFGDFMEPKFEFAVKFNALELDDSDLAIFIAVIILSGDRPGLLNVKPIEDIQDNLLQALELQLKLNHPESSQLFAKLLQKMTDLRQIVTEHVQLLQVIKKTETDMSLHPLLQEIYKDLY
- EXPERIMENT_SUMMARY: Agonist activity at human PPARgamma expressed in U2OS cells coexpressing human RXR assessed as luciferase activity at 10 uM after 24 hrs by transactivation assay relative to control
- Type: cell-based
PARAMETER_MEASURED: Ratio

Known results for compounds:
C[C@@H]1[C@@H](CC(=O)O)c2cc(OCc3ccccc3)ccc2N1C(=O)C12CC3CC(CC(C3)C1)C2 | 1.63
COc1ccc(CC(=O)N2c3ccc(OCc4ccccc4)cc3[C@H](CC(=O)O)[C@H]2C)cc1OC | 2
C[C@H]1[C@@H](CC(=O)O)c2cc(OCc3ccccc3)ccc2N1C(=O)c1ccc(Cl)cc1 | 1.72
Cc1c(CCC(=O)O)c2cc(OCc3ccccc3)ccc2n1C(=O)c1ccc(Cl)cc1 | 2.72
C[C@@H]1[C@@H](CC(=O)O)c2cc(OCCCCc3ccccc3)ccc2N1C(=O)c1ccc(Cl)cc1 | 1.81

P: C[C@@H]1[C@@H](CC(=O)O)c2cc(OCc3ccccc3)ccc2N1C(=O)c1ccncc1
Q: Cc1c(CCCC(=O)O)c2cc(OCc3ccccc3)ccc2n1C(=O)c1ccc(Cl)cc1
Between P and Q , which one shows the larger Ratio value? State your choice using its label.
Q

====

- ASSAYED_SYSTEM: Peroxisome proliferator-activated receptor gamma (Homo sapiens)
- EXPERIMENT_SUMMARY: Agonist activity at human PPARgamma expressed in U2OS cells coexpressing human RXR assessed as luciferase activity at 10 uM after 24 hrs by transactivation assay relative to control
- Format: cell-based
PARAMETER_MEASURED: Ratio

C[C@@H]1[C@@H](CC(=O)O)c2cc(OCc3ccccc3)ccc2N1C(=O)c1ccc(F)cc1 | 1.74

P: C[C@@H]1[C@@H](CC(=O)O)c2cc(OCc3ccncc3)ccc2N1C(=O)c1ccc(Cl)cc1
Q: C[C@@H]1[C@@H](CC(=O)O)c2cc(OCc3ccccc3)ccc2N1S(=O)(=O)c1ccc(Cl)cc1
Between P and Q , which one shows the larger Ratio value? State your choice using its label.
Q
(Q: 2.37, P: 1.49)

====

- ASSAYED_SYSTEM: Peroxisome proliferator-activated receptor gamma (Homo sapiens) (UniProt P37231)
- EXPERIMENT_SUMMARY: Agonist activity at human PPARgamma expressed in U2OS cells coexpressing human RXR assessed as luciferase activity at 10 uM after 24 hrs by transactivation assay relative to control
- Assay type: cell-based
PARAMETER_MEASURED: Ratio

C[C@@H]1[C@@H](CC(=O)O)c2cc(OCc3ccccc3)ccc2N1C(=O)Cc1ccc(Cl)cc1 | 2.2
C[C@@H]1[C@@H](CC(=O)O)c2cc(OCc3ccccc3)ccc2N1C(=O)c1ccccc1 | 2.05
C[C@@H]1[C@@H](CC(=O)O)c2cc(OCc3ccccc3)ccc2N1C(=O)c1ccc(C(F)(F)F)cc1 | 1.72
C[C@@H]1[C@@H](CC(=O)O)c2cc(OCCc3ccccc3)ccc2N1C(=O)c1ccc(Cl)cc1 | 2
C[C@@H]1[C@@H](CC(=O)O)c2cc(OCc3ccccc3)ccc2N1C(=O)c1ccc(C#N)cc1 | 2.05
